Below is a list of entries, each paired with its recorded switch fluorescence ratio value.
- Tested on: ATP;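 further: ATP exposure 15 min at 22 °C before imaging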
- METHOD DESCRIPTION: switch fluorescence ratio, 500 uM ATP over buffer (Cy3 cluster intensity, sum of 5 cycles each) (fold (ratio)); higher = stronger signal-on switching upon ATP binding; sequences stand for … in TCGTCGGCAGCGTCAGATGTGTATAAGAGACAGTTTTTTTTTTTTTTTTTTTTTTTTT…TC
- CONDITION LABEL: aptamer strand: ATP DNA aptamer (quencher-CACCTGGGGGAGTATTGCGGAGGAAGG + anchor), 100 nM annealed; ATP concentration: 500 uM
Please state the value as a number alone, without comment.

Endpoint output: switch fluorescence ratio of `TTAGTGGGTA` . Value?
0.981

Endpoint output: switch fluorescence ratio of `ACTCGGGTAA` . Value?
1

Endpoint output: switch fluorescence ratio of `TTGACGGGAG` . Value?
0.997

Endpoint output: switch fluorescence ratio of `GGTTGACTTG` . Value?
1.01

Endpoint output: switch fluorescence ratio of `CTGGACTTAC` . Value?
1.34

Endpoint output: switch fluorescence ratio of `AAGGGGGAAT` . Value?
1.05

Endpoint output: switch fluorescence ratio of `GGAATGTTGG` . Value?
0.991

* * *

- System: ATP;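 further: ATP exposure 15 min at 22 °C before imaging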
- METHOD DESCRIPTION: switch fluorescence ratio, 500 uM ATP over buffer (Cy3 cluster intensity, sum of 5 cycles each) (fold (ratio)); higher = stronger signal-on switching upon ATP binding; sequences stand for … in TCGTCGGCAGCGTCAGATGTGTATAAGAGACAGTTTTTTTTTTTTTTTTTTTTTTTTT…TC
- CONDITION LABEL: aptamer strand: ATP DNA aptamer (quencher-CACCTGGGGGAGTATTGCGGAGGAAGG + anchor), 100 nM annealed; ATP concentration: 500 uM
PARAMETER MEASURED: switch fluorescence ratio

Some sequences with recorded switch fluorescence ratio:
[[record]]
polymer_sequence = "AAAGGGCCTT"
system = "ATP"
recorded_measurement = 1

[[record]]
polymer_sequence = "TGGTAATTGG"
system = "ATP"
recorded_measurement = 0.98

[[record]]
polymer_sequence = "TAGGTTGAAC"
system = "ATP"
recorded_measurement = 0.974


Form field: switch fluorescence ratio recorded for `CGTCGGGGAT` with ATP (enter value)
1

Form field: switch fluorescence ratio recorded for `TGACTGTTTG` with ATP (enter value)
0.984

Form field: switch fluorescence ratio recorded for `TCAAACGGGG` with ATP (enter value)
1

Form field: switch fluorescence ratio recorded for `ATGTGTAGGG` with ATP (enter value)
0.971

Form field: switch fluorescence ratio recorded for `TCATATTTGT` with ATP (enter value)
0.981

Form field: switch fluorescence ratio recorded for `TTGGTTTGAG` with ATP (enter value)
1.02

Form field: switch fluorescence ratio recorded for `AATGGTGTGT` with ATP (enter value)
1.01

Form field: switch fluorescence ratio recorded for `GATTTGTTTT` with ATP (enter value)
0.994

Form field: switch fluorescence ratio recorded for `CGGGCCGGGA` with ATP (enter value)
0.976

* * *

- Tested on: ATP;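 further: ATP exposure 15 min at 22 °C before imaging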
- METHOD DESCRIPTION: switch fluorescence ratio, 500 uM ATP over buffer (Cy3 cluster intensity, sum of 5 cycles each) (fold (ratio)); higher = stronger signal-on switching upon ATP binding; sequences stand for … in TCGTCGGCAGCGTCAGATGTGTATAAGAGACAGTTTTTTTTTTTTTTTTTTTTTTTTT…TC
- CONDITION LABEL: aptamer strand: ATP DNA aptamer (quencher-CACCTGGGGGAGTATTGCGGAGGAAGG + anchor), 100 nM annealed; ATP concentration: 500 uM
PARAMETER MEASURED: switch fluorescence ratio
Please state the value as a number alone, without comment.

Some sequences with recorded switch fluorescence ratio:
[[record]]
polymer_sequence = "AATTTTGGGT"
parameter_measured = "switch fluorescence ratio"
recorded_measurement = 1

[[record]]
polymer_sequence = "GGTCCTGTGG"
parameter_measured = "switch fluorescence ratio"
recorded_measurement = 1


Endpoint output: switch fluorescence ratio of `ATCCGGACCC` . Value?
1.08

Data provenance is the supplement of paper PMC10126150.
